Measured values drawn from patent US20250195463A1 for this set.

experiment: Stability in aqueous medium (dimethyl sulfoxide/Dulbecco's Modified Eagle Medium) by UV-Vis spectroscopy; assay type: physicochemical; details: 5% dimethyl sulfoxide/95% Dulbecco's Modified Eagle Medium; time 3 h; band 292-296 nm (λmax in column head)
property-label: Relative variation of the maximum absorbance of the π→π* transitions (%)

compound | measurement-units | meas-value
CCOC(=O)Oc1cc[n+]2c(c1)-c1cc(OC)cc[n+]1[Ru-]2([CH]1C=CC=C1)[PH](c1ccccc1)(c1ccccc1)c1ccccc1.O=S(=O)([O-])C(F)(F)F (stereo not drawn) | % | −0.4
O=C(Cc1ccccc1)C1=C[CH]([Ru-]2([PH](c3ccccc3)(c3ccccc3)c3ccccc3)[n+]3ccccc3-c3cccc[n+]32)C=C1.O=S(=O)([O-])C(F)(F)F (stereo not drawn) | % | −0.3
NNC(=O)C1=C[CH]([Ru-]2([PH](c3ccccc3)(c3ccccc3)c3ccccc3)[n+]3ccccc3-c3cccc[n+]32)C=C1.O=S(=O)([O-])C(F)(F)F (stereo not drawn) | % | −0.9
CC(=O)C1=C[CH]([Ru-]2([PH](c3ccccc3)(c3ccccc3)c3ccccc3)[n+]3ccccc3-c3cccc[n+]32)C=C1.O=S(=O)([O-])C(F)(F)F (stereo not drawn) | % | 0.7
COc1cc[n+]2c(c1)-c1cc(O)cc[n+]1[Ru-]2([CH]1C=CC=C1)[PH](c1ccccc1)(c1ccccc1)c1ccccc1.O=S(=O)([O-])C(F)(F)F (stereo not drawn) | % | −4.1
CCC(=O)C1=C[CH]([Ru-]2([PH](c3ccccc3)(c3ccccc3)c3ccccc3)[n+]3ccccc3-c3cccc[n+]32)C=C1.O=S(=O)([O-])C(F)(F)F (stereo not drawn) | % | 0.1

###

test: Stability in organic medium (dimethyl sulfoxide) by UV-Vis spectroscopy; type: physicochemical; settings: time 0.25 h, band 289-300 nm (λmax in column head)
property-label: Relative variation of the maximum absorbance of the π→π* transitions (%)

compound | meas-value
CCC(=O)C1=C[CH]([Ru-]2([PH](c3ccccc3)(c3ccccc3)c3ccccc3)[n+]3ccccc3-c3cccc[n+]32)C=C1.O=S(=O)([O-])C(F)(F)F (centres unmarked) | 0.0
CC(=O)C1=C[CH]([Ru-]2([PH](c3ccccc3)(c3ccccc3)c3ccccc3)[n+]3ccccc3-c3cccc[n+]32)C=C1.O=S(=O)([O-])C(F)(F)F (centres unmarked) | 0.3
O=C(Cc1ccccc1)C1=C[CH]([Ru-]2([PH](c3ccccc3)(c3ccccc3)c3ccccc3)[n+]3ccccc3-c3cccc[n+]32)C=C1.O=S(=O)([O-])C(F)(F)F (centres unmarked) | 0.0
COc1cc[n+]2c(c1)-c1cc(O)cc[n+]1[Ru-]2([CH]1C=CC=C1)[PH](c1ccccc1)(c1ccccc1)c1ccccc1.O=S(=O)([O-])C(F)(F)F (centres unmarked) | 0.0
NNC(=O)C1=C[CH]([Ru-]2([PH](c3ccccc3)(c3ccccc3)c3ccccc3)[n+]3ccccc3-c3cccc[n+]32)C=C1.O=S(=O)([O-])C(F)(F)F (centres unmarked) | 0.3

###

test: Stability in organic medium (dimethyl sulfoxide) by UV-Vis spectroscopy; format: physicochemical; conditions: time 1 h, band 357-425 nm (λmax in column head)
property-label: Relative variation of the maximum absorbance of the charge transfer bands (%)

compound | measurement-units | meas-value
COc1cc[n+]2c(c1)-c1cc(O)cc[n+]1[Ru-]2([CH]1C=CC=C1)[PH](c1ccccc1)(c1ccccc1)c1ccccc1.O=S(=O)([O-])C(F)(F)F (stereo not drawn) | % | 0.7
CC(=O)C1=C[CH]([Ru-]2([PH](c3ccccc3)(c3ccccc3)c3ccccc3)[n+]3cccc4c5nccnc5c5ccc[n+]2c5c43)C=C1.O=S(=O)([O-])C(F)(F)F (stereo not drawn) | % | −0.1
CCOC(=O)Oc1cc[n+]2c(c1)-c1cc(OC)cc[n+]1[Ru-]2([CH]1C=CC=C1)[PH](c1ccccc1)(c1ccccc1)c1ccccc1.O=S(=O)([O-])C(F)(F)F (stereo not drawn) | % | 0.3
NNC(=O)C1=C[CH]([Ru-]2([PH](c3ccccc3)(c3ccccc3)c3ccccc3)[n+]3ccccc3-c3cccc[n+]32)C=C1.O=S(=O)([O-])C(F)(F)F (stereo not drawn) | % | 0.1
CCC(=O)C1=C[CH]([Ru-]2([PH](c3ccccc3)(c3ccccc3)c3ccccc3)[n+]3ccccc3-c3cccc[n+]32)C=C1.O=S(=O)([O-])C(F)(F)F (stereo not drawn) | % | 0.3
CC(=O)C1=C[CH]([Ru-]2([PH](c3ccccc3)(c3ccccc3)c3ccccc3)[n+]3cccc4ccc5ccc[n+]2c5c43)C=C1.O=S(=O)([O-])C(F)(F)F (stereo not drawn) | % | 0.9

###

Listed next: entries and their corresponding Relative variation of the maximum absorbance of the charge transfer bands.
assay: Stability in organic medium (dimethyl sulfoxide) by UV-Vis spectroscopy; format: physicochemical; conditions: time 4 h, band 357-425 nm (λmax in column head)
property-label: Relative variation of the maximum absorbance of the charge transfer bands (%)

molecule | meas-value
CCOC(=O)Oc1cc[n+]2c(c1)-c1cc(OC)cc[n+]1[Ru-]2([CH]1C=CC=C1)[PH](c1ccccc1)(c1ccccc1)c1ccccc1.O=S(=O)([O-])C(F)(F)F (centres unmarked) [compound 11] | −0.2
CC(=O)C1=C[CH]([Ru-]2([PH](c3ccccc3)(c3ccccc3)c3ccccc3)[n+]3ccccc3-c3cccc[n+]32)C=C1.O=S(=O)([O-])C(F)(F)F (centres unmarked) [compound 5] | 0.3
CCC(=O)C1=C[CH]([Ru-]2([PH](c3ccccc3)(c3ccccc3)c3ccccc3)[n+]3ccccc3-c3cccc[n+]32)C=C1.O=S(=O)([O-])C(F)(F)F (centres unmarked) [compound 8] | 0.0
NNC(=O)C1=C[CH]([Ru-]2([PH](c3ccccc3)(c3ccccc3)c3ccccc3)[n+]3ccccc3-c3cccc[n+]32)C=C1.O=S(=O)([O-])C(F)(F)F (centres unmarked) [compound 4] | 0.9
CC(=O)C1=C[CH]([Ru-]2([PH](c3ccccc3)(c3ccccc3)c3ccccc3)[n+]3cccc4c5nccnc5c5ccc[n+]2c5c43)C=C1.O=S(=O)([O-])C(F)(F)F (centres unmarked) [compound 7] | −0.5
